Target: T1, hFc tagged human LAG3 D1-D2 recombinant protein (human, UniProt P18627 23-261)
T1 construct: range 23-261; generated by Chempartner; also called hLAG3 D1-D2; not shown: human IgG Fc tag
T1 sequence (looked up): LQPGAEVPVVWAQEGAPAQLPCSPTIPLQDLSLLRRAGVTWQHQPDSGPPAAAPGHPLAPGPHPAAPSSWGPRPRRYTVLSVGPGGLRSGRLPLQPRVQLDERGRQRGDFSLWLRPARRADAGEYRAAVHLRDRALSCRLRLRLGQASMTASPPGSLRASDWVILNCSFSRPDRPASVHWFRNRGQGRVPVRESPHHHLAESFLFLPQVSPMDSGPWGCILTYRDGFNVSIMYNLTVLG
Experiment: ELISA, coated hFc-hLAG3 D1-D2
Assay endpoint: EC50 (nM)
Use nM as the unit, but write only the number.

Below, 2 binders whose answers are already recorded.
| Binder | Units symbol | Measured number |
| --- | --- | --- |
| Antibody 035 (antibody, V domains shown, mouse hybridoma antibody) VH: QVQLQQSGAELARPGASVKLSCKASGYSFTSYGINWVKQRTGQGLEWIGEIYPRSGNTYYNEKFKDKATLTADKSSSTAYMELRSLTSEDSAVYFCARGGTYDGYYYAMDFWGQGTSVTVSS VL: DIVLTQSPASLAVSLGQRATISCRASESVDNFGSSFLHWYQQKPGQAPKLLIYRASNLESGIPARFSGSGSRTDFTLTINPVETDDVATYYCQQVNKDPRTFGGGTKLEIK | nM | 0.06 |
| Antibody 027 (antibody, V domains shown, mouse hybridoma antibody) VH: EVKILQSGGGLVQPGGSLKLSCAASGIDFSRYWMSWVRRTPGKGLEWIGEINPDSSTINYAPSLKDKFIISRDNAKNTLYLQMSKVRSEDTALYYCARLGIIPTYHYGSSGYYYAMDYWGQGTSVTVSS VL: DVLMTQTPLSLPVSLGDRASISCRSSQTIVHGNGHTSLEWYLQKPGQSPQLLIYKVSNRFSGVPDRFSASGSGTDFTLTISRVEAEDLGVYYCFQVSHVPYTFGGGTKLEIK | nM | 0.05 |

### Prompt Dear colleague, I am looking for the recorded EC50 of the following binder: Antibody 024 (antibody, V domains shown, mouse hybridoma antibody) VH: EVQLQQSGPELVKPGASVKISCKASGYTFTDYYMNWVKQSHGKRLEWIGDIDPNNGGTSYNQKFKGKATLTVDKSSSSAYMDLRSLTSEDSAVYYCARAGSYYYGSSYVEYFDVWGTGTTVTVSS VL: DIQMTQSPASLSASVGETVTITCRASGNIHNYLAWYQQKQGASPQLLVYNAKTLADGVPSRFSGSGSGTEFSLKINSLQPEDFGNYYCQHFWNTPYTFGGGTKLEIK
### Response 0.05

### Prompt Dear colleague, I am looking for the recorded EC50 of the following binder: Antibody 048 (antibody, V domains shown, mouse hybridoma antibody) VH: EFQVQQSGPELVKPGASVKISCKASGYSFSDYNMNWLKQSTGKSLEWIGLVDPIYGTIRYNQKFKGKATLTVDQSSSTAYMQLNSLTSEDSAVYYCALITTSVRYFDYWGQGTTLTVSS VL: DVLMTQTPLSLPVSLGDQASISCRSSQNIVHTDGNTYLEWYLQKPGQSPKLLIYKVSNRFSGVPDRFSGSGSGTDFTLKISRVEAEDLGVYYCFQGSHVPPTFGGGTKLEIK
### Response 0.05

### Prompt Dear colleague, I am looking for the recorded EC50 of the following binder: Antibody 057 (antibody, V domains shown, mouse hybridoma antibody) VH: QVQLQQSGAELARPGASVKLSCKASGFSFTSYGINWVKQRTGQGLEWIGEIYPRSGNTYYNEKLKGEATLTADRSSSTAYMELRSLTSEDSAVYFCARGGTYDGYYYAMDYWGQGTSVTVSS VL: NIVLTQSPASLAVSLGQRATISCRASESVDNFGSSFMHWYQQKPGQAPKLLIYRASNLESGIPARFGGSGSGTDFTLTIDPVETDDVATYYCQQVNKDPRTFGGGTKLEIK
### Response 0.02
